# TESTED TARGET: Cytochrome P450 2D6 (Homo sapiens) (UniProt P10635)
# Sequence (P10635 whole entry, looked up): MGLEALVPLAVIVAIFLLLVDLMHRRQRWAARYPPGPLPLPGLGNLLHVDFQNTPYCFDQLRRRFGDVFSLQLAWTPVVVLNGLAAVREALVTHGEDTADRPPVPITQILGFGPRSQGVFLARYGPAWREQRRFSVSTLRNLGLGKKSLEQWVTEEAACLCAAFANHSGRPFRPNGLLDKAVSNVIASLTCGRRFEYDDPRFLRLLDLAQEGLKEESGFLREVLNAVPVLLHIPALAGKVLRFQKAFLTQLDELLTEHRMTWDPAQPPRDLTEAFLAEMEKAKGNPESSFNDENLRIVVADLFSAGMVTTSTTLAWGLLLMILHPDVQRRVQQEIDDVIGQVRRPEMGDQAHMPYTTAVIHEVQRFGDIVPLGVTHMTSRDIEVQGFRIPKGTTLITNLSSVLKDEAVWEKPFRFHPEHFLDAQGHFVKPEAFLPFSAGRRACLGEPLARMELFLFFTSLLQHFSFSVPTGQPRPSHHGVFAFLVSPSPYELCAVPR
# MEASUREMENT NOTES: Cytochrome panel assay with activity outcomes
# CONDITION NOTES: recombinant CYP, pro-luciferin dealkylation, luminescence, p450-cyp2d6; series mostly up to 57.1 µM
The whole screen tested about 16,000 compounds, of which about 2,600 (16%) were called active. Inconclusive results (about 20%) are left out. The call rests on the fitted dose curve; in most records, active means well fitted curve in the direction sought with a large enough effect; inconclusive means small, poorly fitted or top-dose-only effect, or effect the other way; inactive means no such curve, though single readings can be large or run the other way. These entries were drawn from the full list.
Labels: active, inactive

| COMPOUND | GROUP |
| --- | --- |
| COc1ccc(NC(=O)N2CC3(CCN(C(=O)c4cnccn4)CC3)C2)cc1 | inactive |
| CCCc1ccc(C2C3=C(CC(C)(C)CC3=O)NC3=C2C(=O)c2ccccc23)cc1 (stereo unspecified) | inactive |
| Cc1nc(N/N=C/c2ccccc2)nc(N(C)c2ccccc2)c1[N+](=O)[O-] | inactive |
| CCOC(=O)c1cn(-c2nc(-c3ccc(Cl)cc3)cs2)c2c(F)c(N3CC(C)OC(C)C3)c(F)cc2c1=O (stereo unspecified) | inactive |
| Cc1ccccc1NC(=O)CSc1nnc(-c2ccccc2)n1-c1ccccc1 | active |
| CCn1ncc(C(=O)Nc2cc(C)on2)c1C | inactive |
| Fc1ccc(C(OCCCc2cnc[nH]2)c2ccc(F)cc2)cc1 | active |
| CCOc1ccc(-n2c(SCC(=O)Nc3ccccc3C)n[nH]c2=O)cc1 | inactive |
| COc1ccc(-c2ccc(N)[n+](CCCC(=O)O)n2)cc1 | inactive |
| CSc1nc(C2CC2)cc(-c2cccs2)c1C#N | inactive |
| C/C(Cl)=C/CSc1nnc2n(N)c(=O)c3ccccc3n12 | inactive |
| COc1ccccc1CNc1ncnc2ccc(-c3ccoc3)cc12 | active |
| COc1ccc(-c2ccc(=N)n(CCCC(=O)O)n2)cc1 | active |
| COc1cccc(Nc2ncc3nc(-c4ccccc4)c(=O)n(C)c3n2)c1 | inactive |
| Cc1ccc(Sc2cc(Cl)nc(N)n2)cc1 | inactive |
| Cc1cc2c(cc1C)NC(c1nc3ccccc3[nH]1)C1=C(CC(C)(C)CC1=O)N2 (stereo unspecified) | inactive |
| CN(C)CCO[C@](C)(c1ccccc1)c1ccccn1 | inactive |
| COCCn1c(=O)c(-c2cc(F)cc(F)c2)nc2cnc(N3CCN(C)CC3)nc21 | inactive |
| COc1cccc(C=NC=Nc2cccc(OC)c2)c1 | inactive |
| NC(=O)Nn1c(CCC(=O)O)ccc1-c1ccc(F)cc1 | inactive |
| c1coc(CN2CCN(C(c3cccs3)c3nnnn3C3CCCC3)CC2)c1 (stereo unspecified) | active |
| Cc1ccc(NC(=O)Cn2nc([N+](=O)[O-])c(Br)c2C)cc1C | inactive |
| Cc1ccc(C(c2nnnn2C2CCCC2)N2CCN3CCCC3C2)cc1 (stereo unspecified) | active |
| C=CCSC[C@@H]1Nc2cc(Cl)c(S(N)(=O)=O)cc2S(=O)(=O)N1 | inactive |
| O=C(Nc1ccccc1N1CCOCC1)c1cnccn1 | inactive |
| CCN(CC)[C@@H](C)CN1c2ccccc2Sc2ccccc21 | active |
| O=C(CSc1nnc(-c2ccccc2)n1-c1ccccc1)c1cccs1 | active |
| Cc1nc2ncnn2c(C)c1CCC(=O)NCc1ccco1 | inactive |
| Cn1c(=O)c(-c2ccccc2)nc2cnc(OCc3ccccc3)nc21 | inactive |
| CN1CC[C@@]2(CCCN(C(=O)c3cc(C(F)(F)F)cc(C(F)(F)F)c3)C2)C1 | inactive |
| COc1ncc2nc(-c3cccs3)c(=O)n(CCc3ccccc3)c2n1 | inactive |
| Cc1cc(C)cc(-n2c(C)cc(C=C(C#N)C#N)c2C)c1 | inactive |
| Nc1cc(-c2nn[nH]n2)ccc1F | inactive |
| CC1(C)CC(=O)C2=C(C1)Nc1cc3c(cc1C2c1ccc(F)cc1)OCO3 (stereo unspecified) | active |
| COc1ccc(-n2c(=O)cnc3cnc(Oc4ccccc4)nc32)cc1 | inactive |
| COc1cccc(/C=N/Nc2nc(N3CCCC3)nc(N3CCCC3)n2)c1O | inactive |
| COc1ccc(N2CCN(C(=S)Nc3cccc(C)c3)CC2)cc1 | inactive |
| COc1ccc(CNc2ncnc3ccc(-c4ccoc4)cc23)c(OC)c1 | active |
| CCn1c(SCC(=O)Nc2ccccc2C(=O)OC)nnc1-c1ccc(N)cc1 | inactive |
| COC(=O)CSc1nnc(-c2ccccc2OC)n1-c1ccc(C)cc1 | inactive |
| C[C@@H](C1=C(CCN(C)C)Cc2ccccc21)c1ccccn1 | active |
| N[C@H](CCCC(=O)O)C(=O)O | inactive |
| N#Cc1c(-c2ccccc2)cc(C2CC2)nc1SCC(=O)c1cccs1 | inactive |
| CCOC(=O)c1cnc2cc(-c3ccc(C)cc3)nn2c1-c1ccccc1 | inactive |
| CCC(NC(=O)Nc1cc(OC)c(OC)c(OC)c1)(C(F)(F)F)C(F)(F)F | inactive |
| O=C1CCCc2ccccc2N1Cc1ccccc1Cl | inactive |
